Would you kindly list Solubility for each of these compounds?
Assay: Aqueous solubility
Assay type: physicochemical
One number for each entry, in µg/mL.

>>> value("COc1ccc(CN2CCC(N(CCc3ccccc3)Cc3ccccc3)CC2)c(OC)c1.O=C(O)C(=O)O")
49.3

Next up:
query: Record request: Solubility value, item Cc1ccccc1-c1nc(CN2CCC(C(=O)NCCCN3CC(C)CC(C)C3)CC2)c(C)o1 (stereo not shown)
result: 53.9
